Where these numbers come from: PubChem BioAssay AID248

system: L1210 leukemia ip in BDF1 mice, survival T/C; assay: NCI In Vivo Anticancer Drug Screen. Data for tumor model L1210 Leukemia (intraperitoneal) in B6D2F1 (BDF1) mice; conditions: endpoint: mean survival time; dose: 200.0 mg/kg/injection; schedule: Q01DX001 (ip); vehicle: carboxymethylcellulose (CMC); higher = longer survival
Toxic doses and inconclusive results are not listed.
Measurement Label: T/C

Completed entries (count: 3):
CCCCCCc1cc(N=Nc2ccc(S(=O)(=O)Nc3cc(C)nc(C)n3)cc2)c(O)cc1O = 95 % of control
COc1ccc(NC(=O)/C=N/O)c(Cl)c1 = 94 % of control
CC(C)=CCC/C(C)=C\C=N\NC(N)=S = 104 % of control

Recorded T/C for "COc1ccc(OC)c(C(=O)CCC(=O)O)c1" on L1210 leukemia ip in BDF1 mice, survival T/C was 100 % of control

Recorded T/C for "Cc1ccc(NC(=O)Nc2ccc(Cl)cc2)c(C)c1" on L1210 leukemia ip in BDF1 mice, survival T/C was 106 % of control

Recorded T/C for "Nc1c(Br)cc2c(c1Br)C(=O)c1cc(Br)ccc1-2" on L1210 leukemia ip in BDF1 mice, survival T/C was 94 % of control
